- Tested on: RAW-Dual (murine macrophage reporter line)
- experiment_summary: NF-kB reporter (SEAP) activity fold change vs agonist alone; higher = enhanced NF-kB activity
- run_conditions: modulator concentration 10 µM; agonist: CpG ODN 1826 0.5 ug/mL
measured_parameter: NF-kB reporter

compound="CC(O)(CS(=O)(=O)c1ccc(F)cc1)C(=O)Nc1ccc(C#N)c(C(F)(F)F)c1 (stereo not drawn)" test_result=1.38
compound=COc1ccc(CCNCc2ccc(OC)c(OC)c2OC)cc1OC test_result=1.01
compound=CCOc1cc(C=C2C(=O)NC(=O)NC2=O)ccc1OCc1c(Cl)cccc1Cl test_result=1.06
compound=COc1ccc(CNCCc2c[nH]c3ccccc23)c(OC)c1C test_result=0.258
compound=Cc1ccc(-c2nn(-c3ccccc3)cc2C=C2C(=O)NC(=S)NC2=O)o1 test_result=1.03
compound="COc1cc2c(c(OC)c1OC)-c1ccc(OC)c(=O)cc1C(NC(C)=O)CC2 (stereo not drawn)" test_result=2.37
compound=COc1ccc2c(c1)[nH]c1c(C)nccc12 test_result=0.6
compound=CCOC(=O)c1ccccc1-c1ccc(C=C2C(=O)NC(=O)N(c3cccc(C)c3)C2=O)o1 test_result=1
compound=COc1ccc2c3c([nH]c2c1)C(C)=NCC3 test_result=0.359
compound="CC(=O)OC1CCC2(C)C(CCC3C4CCC(=O)C4(C)CCC32)C1 (stereo not drawn)" test_result=1.22
compound="CC[N+]1(C)CCCC(OC(=O)C(O)(c2ccccc2)c2ccccc2)C1 (stereo not drawn)" test_result=0.921
compound="CN1Cc2c(ccc3c2OCO3)C2C(O)Cc3cc4c(cc3C21)OCO4 (stereo not drawn)" test_result=1.75
compound=Br.NCCc1cc(O)c(O)cc1O test_result=1.04
compound=C1CCc2nnnn2CC1 test_result=1.27
compound="CC(=O)OC1CN2CCC1CC2.Cl (stereo not drawn)" test_result=0.984
compound="c1cc2c(cc1C1OCC3C(c4ccc5c(c4)OCO5)OCC13)OCO2 (stereo not drawn)" test_result=0.745
compound=COc1ccc(OC)c(C=C2C(=O)NC(=O)NC2=O)c1 test_result=1.15
compound=COC(=O)c1ccc(N2C(=O)NC(=O)C(=Cc3ccc(OCc4ccccc4F)cc3)C2=O)cc1 test_result=1.06
compound=Clc1cccc(CNCCc2c[nH]c3ccccc23)c1 test_result=0.317
compound="CCC1CN2CCC1CC2C(O)c1ccnc2ccc(OC)cc12 (stereo not drawn)" test_result=1.05
compound="COc1cc2c(cc1OC)C1C(=O)c3ccc4c(c3OC1CO2)CC(C(C)C)O4 (stereo not drawn)" test_result=1.11
compound=O=C(NCCN1CCOCC1)c1ccc(Cl)nc1 test_result=0.917
compound=COC(=O)COc1ccc(C=C2C(=O)NC(=S)N(c3cccc(Cl)c3Cl)C2=O)cc1OC test_result=0.959
